Measured GI50, listed per entry.
test system: OVCAR-3; assay: NCI tumour cell line growth inhibition, 48 h
Activity calls are given as the source filed them. No stated cut-off is given here; in the data, active = GI50 up to about 1.1 µM and inactive = higher.
attribute measured: GI50

                                   compound        readout_value
0  CCC(=O)C(C)C1=Nc2nnc(CCCCCCCc3nnc4n3C(=O)C(C(C)C(=O)CC)=N4)n2C1=O (stereo not drawn)  > 100 µM (inactive)
1  O=c1[nH]/c(=C/c2ccc(OCc3ccccc3)cn2)c(=O)[nH]/c1=C/c1cccnc1     0.23 µM (active)
2  Cc1ccc(-c2[nH]c(=O)n(C3OC(CO)C(O)C(O)C3O)c(=O)c2C#N)cc1 (stereo not drawn)  > 100 µM (inactive)
3  COc1cc([C@@H]2c3cc4c(cc3[C@@H](NC(=O)c3ccc(OC(C)=O)cc3)C3COC(=O)[C@@H]32)OCO4)cc(OC)c1O (stereo partly drawn)   4.84 µM (inactive)
4  Cc1cc2c(cc1C)[n+]([O-])c(C(=O)C/C(=N/NC(=S)NN)C(=O)Nc1cccc(C(F)(F)F)c1)c[n+]2[O-]  > 100 µM (inactive)
5  CCC1c2[nH]c3ccccc3c2C[C@H]2C(=O)N3CCC[C@H]3C(=O)N12 (stereo partly drawn)  > 100 µM (inactive)
6  COc1nc2c(c(=O)[nH]1)N=C(c1ccccc1)CC(c1ccccc1)N2 (stereo not drawn)  > 100 µM (inactive)
7                             O=c1cc(O)c1=O  > 100 µM (inactive)

----------
Measured GI50, listed per entry.
test system: SF-295; test: NCI tumour cell line growth inhibition, 48 h
Calls of active or inactive are those of the source. Cut-off read from the data, not from the text of the source: active = GI50 up to about 1.1 µM and inactive = higher.
attribute measured: GI50

                                   compound        readout_value
0               O=C(CBr)NCCc1c[nH]c2ccccc12   13.7 µM (inactive)
1  CC1=CC(=O)CC2(C)CCC(C(C)CC(=O)CC(C)C)CC12 (stereo not drawn)   32.5 µM (inactive)
2  CCc1ncc(C(C)(O)c2ccccc2)n1Cc1ccccc1 (stereo not drawn)  > 100 µM (inactive)

----------
system: SF-295; experiment: NCI tumour cell line growth inhibition, 48 h
Active and inactive are the calls of the source. Cut-off read from the data, not from the text of the source: active = GI50 up to about 1.1 µM and inactive = higher.
attribute measured: GI50

>>> df
                               entry_smiles  attribute_measured        readout_value
0  COC(=O)c1cc(NC(=O)Cn2c3ccccc3c3ccccc32)cn1C                GI50   26.9 µM (inactive)
1       Cc1c(Cl)cccc1N1C(=O)C(Cl)=C(Cl)C1=O                GI50  > 100 µM (inactive)
2  COc1ccccc1N1CCN(S(=O)(=O)c2ccc(Cl)cc2)C1=N                GI50  > 100 µM (inactive)
3        O=C(C(Cl)Cl)N(O)c1ccccc1OCc1ccccc1                GI50   57.7 µM (inactive)

----------
test system: MOLT-4; assay: NCI tumour cell line growth inhibition, 48 h
Active and inactive are the calls of the source. No stated cut-off is given here; in the data, active = GI50 up to about 1.1 µM and inactive = higher.
Outcomes: active, inactive

>>> df
                                   compound  tested_on  label_value
0  Cn1c2ccccc2c(=O)c2c(O)cc3c(c21)C=CC1(CCCCC1)O3     MOLT-4     inactive
1  C[C@]12[C@@H]3CC[C@H]1[C@@H](O)C(=O)N2CC3     MOLT-4     inactive
2  CC1(C)C2CCC(O)(C2)C1N (centres undefined)     MOLT-4     inactive
3  O=C(Nc1ccc(Cl)c(Cl)c1)C(=O)C(C(=O)c1ccccc1F)C1OC(=O)c2ccccc21 (centres undefined)     MOLT-4     inactive
4  C[C@@H]1C[C@@H]([C@H](O)CC2CC(=O)NC(=O)C2)C(=O)[C@@H](C)C1 [CYCLOHEXIMIDE]     MOLT-4       active
5  C=C1CC/C=C(\C)C(=O)C[C@@H]2[C@@H]1CC2(C)C [BUDDLEDIN C]     MOLT-4       active
6   CCOC(=O)c1[nH]c(Br)c(-c2ccc(Br)cc2)c1Br     MOLT-4       active
7  CC1(C)CC(c2c[nH]c3ccccc23)=CC2=Nc3ccccc3C21O (centres undefined)     MOLT-4     inactive
8                  CCCCCCCc1cscc1-c1cscc1Br     MOLT-4     inactive

meta.source: ChEMBL document CHEMBL1201862
